Task for the reader: assign each of the following compounds its reported IC50.
# system.tested: Voltage-gated inwardly rectifying potassium channel KCNH2 (Homo sapiens, UniProt Q12809)
# Sequence (Q12809 whole entry): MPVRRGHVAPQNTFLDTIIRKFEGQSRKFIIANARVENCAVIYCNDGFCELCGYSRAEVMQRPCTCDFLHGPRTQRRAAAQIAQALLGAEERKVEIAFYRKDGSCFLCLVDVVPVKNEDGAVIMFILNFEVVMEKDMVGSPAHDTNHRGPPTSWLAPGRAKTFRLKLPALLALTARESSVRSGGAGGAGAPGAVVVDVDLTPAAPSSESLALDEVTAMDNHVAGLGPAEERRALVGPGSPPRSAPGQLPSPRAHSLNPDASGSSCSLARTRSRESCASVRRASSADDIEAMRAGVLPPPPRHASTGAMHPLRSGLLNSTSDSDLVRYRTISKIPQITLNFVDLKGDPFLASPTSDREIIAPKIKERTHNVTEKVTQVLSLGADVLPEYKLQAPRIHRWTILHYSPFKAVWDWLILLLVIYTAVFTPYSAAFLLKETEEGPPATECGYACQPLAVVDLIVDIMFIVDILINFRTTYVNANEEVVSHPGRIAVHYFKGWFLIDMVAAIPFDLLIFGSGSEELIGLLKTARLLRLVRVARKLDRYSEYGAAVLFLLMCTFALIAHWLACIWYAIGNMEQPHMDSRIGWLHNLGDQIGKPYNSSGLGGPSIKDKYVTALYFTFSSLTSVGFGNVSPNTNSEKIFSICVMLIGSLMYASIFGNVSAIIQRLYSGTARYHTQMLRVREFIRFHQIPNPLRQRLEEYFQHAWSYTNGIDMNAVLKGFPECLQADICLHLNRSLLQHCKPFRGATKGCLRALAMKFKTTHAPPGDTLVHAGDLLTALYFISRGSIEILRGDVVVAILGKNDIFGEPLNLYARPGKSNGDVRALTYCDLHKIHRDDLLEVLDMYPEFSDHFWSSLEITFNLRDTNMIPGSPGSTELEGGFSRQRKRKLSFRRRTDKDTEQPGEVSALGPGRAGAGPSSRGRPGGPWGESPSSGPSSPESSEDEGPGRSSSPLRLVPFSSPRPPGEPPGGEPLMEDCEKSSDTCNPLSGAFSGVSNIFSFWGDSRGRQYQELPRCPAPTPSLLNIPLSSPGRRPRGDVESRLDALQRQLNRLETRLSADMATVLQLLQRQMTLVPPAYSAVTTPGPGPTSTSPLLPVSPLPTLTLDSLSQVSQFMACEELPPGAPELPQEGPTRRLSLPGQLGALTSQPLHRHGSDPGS
# test.method.notes: Inhibition of human ERG expressed in CHOK1 cells assessed as reduction in tail current at -80 holding potential after 100 to 200 secs by whole cell automated patch-clamp electrophysiology assay
Answers are plain numbers, in µM.

Example entries and their recorded answers appear below.
O=C1S/C(=C\c2ccc(Oc3ccc(F)cc3)cc2)C(=O)N1c1ccc(OCCCCN2CCN(CC3CC3)CC2)cc1 : 3.4
O=C1S/C(=C\c2ccc(Oc3ccc([N+](=O)[O-])cc3)cc2)C(=O)N1c1ccc(OCCCCN2CCN(CC3CC3)CC2)cc1 : 55.3

Alright, here's another compound for you.
## Input Consider the compound shown here: O=C1S/C(=C\c2ccc(Oc3ccc(Br)cc3)cc2)C(=O)N1c1ccc(OCCCCN2CCN(CC3CC3)CC2)cc1 What is its recorded IC50?
## Output 27.5

* * *

Task for the reader: assign each of the following molecules its reported IC50.
# system.tested: Inhibitor of nuclear factor kappa-B kinase subunit beta (Homo sapiens)
# test.method.notes: Irreversible inhibition of IKKbeta (unknown origin) using IkappaBalpha-derived 5FAMGRHDSGLDSMK-NH2 as substrate measured after 20 mins
One number for each entry, in nM.

O=C1S/C(=C\c2ccc(N3CCOCC3)c(Cl)c2)C(=O)N1c1ccc(OCCCN2CCN(CC3CC3)CC2)cc1 : 288

Next up:
## Input Notebook: pull reported IC50 for Inhibitor of nuclear factor kappa-B kinase subunit beta (Homo sapiens), entry O=C1S/C(=C\c2ccc(Oc3ccc(F)cc3)cc2)C(=O)N1c1ccc(OCCCCCN2CCN(CC3CC3)CC2)cc1
## Output 340

* * *

Give measured log10(IC50) for each item. Keep answers brief.
# system.tested: Inhibitor of nuclear factor kappa-B kinase subunit beta (Homo sapiens, UniProt O14920)
# Sequence (O14920 whole entry): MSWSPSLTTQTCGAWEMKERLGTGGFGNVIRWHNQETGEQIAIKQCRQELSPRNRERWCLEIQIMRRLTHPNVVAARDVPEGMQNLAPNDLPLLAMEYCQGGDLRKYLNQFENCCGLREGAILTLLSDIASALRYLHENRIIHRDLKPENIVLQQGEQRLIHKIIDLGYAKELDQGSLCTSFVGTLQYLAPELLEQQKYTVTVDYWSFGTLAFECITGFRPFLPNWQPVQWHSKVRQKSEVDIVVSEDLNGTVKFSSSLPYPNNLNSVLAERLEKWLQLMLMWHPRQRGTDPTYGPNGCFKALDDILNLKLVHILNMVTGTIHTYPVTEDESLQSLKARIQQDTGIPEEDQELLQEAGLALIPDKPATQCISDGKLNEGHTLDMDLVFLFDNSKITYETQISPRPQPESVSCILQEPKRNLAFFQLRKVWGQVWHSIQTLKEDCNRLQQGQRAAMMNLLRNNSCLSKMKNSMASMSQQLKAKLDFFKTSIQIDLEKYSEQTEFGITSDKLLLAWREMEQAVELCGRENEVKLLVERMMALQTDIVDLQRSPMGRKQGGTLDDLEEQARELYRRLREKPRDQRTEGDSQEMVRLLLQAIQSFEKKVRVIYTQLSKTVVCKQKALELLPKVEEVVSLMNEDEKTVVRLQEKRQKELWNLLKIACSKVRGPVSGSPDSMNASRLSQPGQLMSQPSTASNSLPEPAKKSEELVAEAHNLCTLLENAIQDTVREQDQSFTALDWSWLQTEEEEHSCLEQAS
# test.method.notes: Inhibition of IKKbeta (unknown origin) using IkappaBalpha-derived 5FAMGRHDSGLDSMK-NH2 as substrate preincubated for 10 mins followed by substrate addition measured after 2 hrs by IMAP based TR-FRET assay
Note: values are log10 of IC50 expressed in nM.

Look over these answered cases.
O=C1S/C(=C\c2ccc(Oc3ccc([N+](=O)[O-])cc3)cc2)C(=O)N1c1ccc(OCCCCN2CCN(CC3CC3)CC2)cc1 : 3.18
O=C1S/C(=C\c2ccc(Oc3ccc(F)cc3)cc2)C(=O)N1c1ccc(OCCCN2CCN(CC3CC3)CC2)cc1 : 3.15

Please state log10(IC50) for every molecule in the list that follows.
1. O=C1S/C(=C\c2ccc(Oc3ccc(F)cc3)cc2)C(=O)N1c1ccc(OCCCCN2CCN(CC3CC3)CC2)cc1
2. O=C1S/C(=C\c2ccc(N3CCOCC3)c(Cl)c2)C(=O)N1c1ccc(OCCCCCN2CCN(CC3CC3)CC2)cc1
3. O=C1S/C(=C\c2ccc(N3CCOCC3)c(Cl)c2)C(=O)N1c1ccc(OCCCN2CCN(CC3CC3)CC2)cc1
4. O=C1S/C(=C\c2ccc(Oc3ccc(Br)cc3)cc2)C(=O)N1c1ccc(OCCCCN2CCN(CC3CC3)CC2)cc1

## Output
1: 3.23; 2: 2.95; 3: 2.85; 4: 3.90

Provide log10(IC50) for all items below, preserving their order.
1. O=C1S/C(=C\c2ccc(Oc3ccc(F)cc3)cc2)C(=O)N1c1ccc(OCCCCCN2CCN(CC3CC3)CC2)cc1
2. O=C(C1CC1)N1CCN(CCCCOc2ccc(N3C(=O)S/C(=C\c4ccc(Oc5ccc(Br)cc5)cc4)C3=O)cc2)CC1

## Output
2.60
3.93
